B1: VTI1B (parent)
chain: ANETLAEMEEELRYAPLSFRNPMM

Variants of: B1
run.description: protein stability index of a GFP-peptide fusion (GPS, HEK-293T) (PSI 1-6); higher = more stable;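 further: lentivirally expressed fusions sorted by FACS into six bins by GFP to DsRed ratio, PSI derived from sequencing read proportions per bin multiplied by bin number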
run.parameters: c terminus: a fixed tail appended
measurement.name: protein stability index

Solved cases (5 shown):
T4H 1.83
E10K 2.73
S18K 3.81
E10W 1.96
E11A 2

Exercise: For L17W , write its protein stability index.
Key: 2
